Molecular target: SARS-CoV-2 NSP3 SUD-M domain, tag cleaved (FP) (SARS-CoV-2)
Experiment: fluorescence polarisation
readout_kind: Kd (µM)

QFTEEDLHFVLYGVTPSL (modifications not checked) [wild-type PRDM14 peptide (FP)]; 74

The origin of these recorded values is paper doi:10.1101/2024.08.06.606761.
